Assay: Quantitative High-Throughput drug screen in 47 multiple myeloma cell lines against the NCATS MIPE library collection: OPM2_DSMZ cell viability assay (AID 1919872); note: nearly all actives have a fitted effect of over 30% in size
Details: OPM2 myeloma viability, CellTiter-Glo ATP luminescence, 48 h; series mostly up to 45.8 µM
Results filed as inconclusive are left out. Activity calls are given as the source filed them. Calls come from the whole dose curve; as a rule, active = well fitted cell-killing curve with a large enough effect; inconclusive = small, poorly fitted or top-dose-only effect, or effect the other way; inactive = no such curve, though single readings can be large or run the other way. Non-standard residues stand in square brackets, D forms with d. Residues, ends and D or L forms follow the SMILES beside them. *: point of attachment. Sta = CC(C)C[C@H](N)[C@@H](O)CC(=O)O; Isovaleryl = CC(C)CC(=O)*
Outcomes: active, inactive

CC(C)c1ccc2c(c1)c(SC(C)(C)C)c(CC(C)(C)C(=O)O)n2Cc1ccc(Cl)cc1    inactive
C=CCc1cc(OC)c(O)c(C(=O)NCCO)c1    inactive
CC(C)C[C@H](NC(=O)[C@H](Cc1ccccc1)NC(=O)c1cnccn1)B(O)O    active
Cc1cccc(C#Cc2ccccc2)n1    inactive
CCCc1cc(=O)[nH]c(=S)[nH]1    inactive
O=c1c(O)c(-c2cc(O)c(O)c(O)c2)oc2cc(O)cc(O)c12    active
CC(C)[N+]1(C)[C@@H]2CC[C@H]1CC(OC(=O)C(CO)c1ccccc1)C2 (some centres undefined)    inactive
CN(C)CCCC1(c2ccc(F)cc2)OCc2cc(C#N)ccc21 (centres undefined)    inactive
CC(C)CC(=O)N[C@H](C(=O)N[C@H](C(=O)N[C@@H](CC(C)C)[C@@H](O)CC(=O)N[C@@H](C)C(=O)N[C@@H](CC(C)C)[C@@H](O)CC(=O)O)C(C)C)C(C)C (Isovaleryl-VV[Sta]A[Sta]-OH)    inactive
